Recorded IC50 values for a group of molecules are listed next.
Target: [Pyruvate dehydrogenase (acetyl-transferring)] kinase isozyme 3, mitochondrial (Homo sapiens, UniProt Q15120)
Sequence (Q15120 whole entry): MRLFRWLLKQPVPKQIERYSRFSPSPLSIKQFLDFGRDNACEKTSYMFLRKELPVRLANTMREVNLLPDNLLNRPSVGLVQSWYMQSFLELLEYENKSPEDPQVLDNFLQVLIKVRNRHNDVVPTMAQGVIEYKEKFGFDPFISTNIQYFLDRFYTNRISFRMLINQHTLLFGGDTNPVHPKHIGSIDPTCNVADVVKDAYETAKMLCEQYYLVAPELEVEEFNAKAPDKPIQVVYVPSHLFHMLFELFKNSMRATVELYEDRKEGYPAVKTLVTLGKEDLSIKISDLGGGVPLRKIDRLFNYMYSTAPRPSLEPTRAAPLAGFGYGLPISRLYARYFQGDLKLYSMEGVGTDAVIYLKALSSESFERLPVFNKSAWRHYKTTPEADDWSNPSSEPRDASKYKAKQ
Test: Inhibition of PDK3 (unknown origin) using PDC E1 as substrate measured after 30 mins by kinase-glo assay
Please state the figure in µM; there is no need to write the unit.

O=C(NCc1ccccc1-n1cccn1)c1cc(-c2ccccc2O)n[nH]1; 4.8
OCCOc1ccc(CN2CCN(Cc3ccc(F)c(F)c3)[C@@H](CCO)C2)cc1; 3.9

We now examine a further molecule.
# lookup: IC50 of `CN(C)CCCn1ccnc1[C@H]1CCCN(C(=O)c2ccc3cc[nH]c3c2)C1`
7.8

This collection of values is drawn from ChEMBL document CHEMBL4368877.
